Molecular target: Indoleamine 2,3-dioxygenase 1 (Homo sapiens)
Sequence (P14902 whole entry): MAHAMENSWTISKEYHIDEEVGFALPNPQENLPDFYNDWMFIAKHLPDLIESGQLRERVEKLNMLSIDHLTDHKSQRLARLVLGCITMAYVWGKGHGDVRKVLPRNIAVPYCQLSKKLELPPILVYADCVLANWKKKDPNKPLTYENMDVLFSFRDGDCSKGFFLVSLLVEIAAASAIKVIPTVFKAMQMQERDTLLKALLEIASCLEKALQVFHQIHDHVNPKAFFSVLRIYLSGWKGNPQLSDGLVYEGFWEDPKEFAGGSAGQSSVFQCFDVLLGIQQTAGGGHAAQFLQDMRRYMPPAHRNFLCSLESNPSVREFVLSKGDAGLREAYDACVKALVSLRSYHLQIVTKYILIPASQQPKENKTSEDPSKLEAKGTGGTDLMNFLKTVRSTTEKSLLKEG
Assay: Inhibition of IDO1 in IFN-gamma stimulated human HeLa cells incubated for 48 hrs by fluorescence microplate reader assay
pIC50: −log10 of the molar value.

{"compound": "Cc1cccc(N2CCN(C(=O)Cn3nc(C(=O)N4CCC5(CO)CC4C5)c4c3C[C@H]3C[C@@H]43)CC2)c1C", "inequality-symbol": ">", "pIC50": 9.29}
{"compound": "CC(=O)NC1CCN(C(=O)c2nn(CC(=O)N3CCN(c4cccc(C)c4Cl)CC3)c3c2C2CCCCC2C3)CC1 (configuration not stated)", "inequality-symbol": "=", "pIC50": 9.23}
